# METHOD: IS-RPLC retention on silica-based C18 column, logkw by linear solvent strength model
# Type: physicochemical
# CONDITION DESCRIPTION: pH 8
READOUT: logkw-pH 8.0
Note: the reply should be a number with no unit written.

Worked cases, logkw-pH 8.0 given:
COMPOUND | logkw-pH 8.0
c1ccc(-c2ccncc2)cc1 [4-Phenylpyridine] | 2.81
Cc1ccc(N)c(C)c1 [2,4-Dimethylaniline] | 1.98

Query :: Input Nc1ccc(N)cc1 [1,4-Benzenediamine] , output reported logkw-pH 8.0.
Result :: −0.35

Query :: Report measured logkw-pH 8.0; entry is c1ccncc1 [Pyridine]
Result :: 0.92
